Taken from patent US20220265709A1.

Target: His-tagged human BCMA (ACRO Biosystems, Cat. #: BCA-H522y) (human)
Sequence (Q02223 1-54): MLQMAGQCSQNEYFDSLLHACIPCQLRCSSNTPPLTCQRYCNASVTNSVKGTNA
Assay: SPR (BIAcore T200) affinity ranking; crude sdAb captured via tag, antigen at 100 nM
Kd values for the binders below.
Give the quantity in nM, number only.

Asked: I have this binder here, anti-BCMA sdAb BCMA9 (VHH, part only, affinity tag) VHH: QVQLVESGGGSVQAGGSLRLSCKSSGAPYSSNCMAWFRQTPGKGREGVATIDLASHDTYYADSVKGRFTISRDNAKNTMYLQMNSLKPEDTAMYYCAATSWWPCTTFNGGYANWGQGTQVTVSS , and I need its recorded Kd.
Given back: 8.5

Asked: Now try anti-BCMA sdAb BCMA6 (VHH, part only, affinity tag) VHH: QMQLVESGGGSVQAGGSLRLSCTASGYTFDDSAMGWYRQAPGNECELVSSISSDGSTYYSDSVKGRFTISQDNAKNTMYLQMNSLKPEDTAVYSCAASSGEDGGSWSTPCHFFGYWGQGTQVTVSS .
Given back: 4.9
